Biological target: T1, EsCas13d, nuclease-dead (Eubacterium siraeum, UniProt B0MS50, R295A;H300A;R849A;H854A)
T1 sequence: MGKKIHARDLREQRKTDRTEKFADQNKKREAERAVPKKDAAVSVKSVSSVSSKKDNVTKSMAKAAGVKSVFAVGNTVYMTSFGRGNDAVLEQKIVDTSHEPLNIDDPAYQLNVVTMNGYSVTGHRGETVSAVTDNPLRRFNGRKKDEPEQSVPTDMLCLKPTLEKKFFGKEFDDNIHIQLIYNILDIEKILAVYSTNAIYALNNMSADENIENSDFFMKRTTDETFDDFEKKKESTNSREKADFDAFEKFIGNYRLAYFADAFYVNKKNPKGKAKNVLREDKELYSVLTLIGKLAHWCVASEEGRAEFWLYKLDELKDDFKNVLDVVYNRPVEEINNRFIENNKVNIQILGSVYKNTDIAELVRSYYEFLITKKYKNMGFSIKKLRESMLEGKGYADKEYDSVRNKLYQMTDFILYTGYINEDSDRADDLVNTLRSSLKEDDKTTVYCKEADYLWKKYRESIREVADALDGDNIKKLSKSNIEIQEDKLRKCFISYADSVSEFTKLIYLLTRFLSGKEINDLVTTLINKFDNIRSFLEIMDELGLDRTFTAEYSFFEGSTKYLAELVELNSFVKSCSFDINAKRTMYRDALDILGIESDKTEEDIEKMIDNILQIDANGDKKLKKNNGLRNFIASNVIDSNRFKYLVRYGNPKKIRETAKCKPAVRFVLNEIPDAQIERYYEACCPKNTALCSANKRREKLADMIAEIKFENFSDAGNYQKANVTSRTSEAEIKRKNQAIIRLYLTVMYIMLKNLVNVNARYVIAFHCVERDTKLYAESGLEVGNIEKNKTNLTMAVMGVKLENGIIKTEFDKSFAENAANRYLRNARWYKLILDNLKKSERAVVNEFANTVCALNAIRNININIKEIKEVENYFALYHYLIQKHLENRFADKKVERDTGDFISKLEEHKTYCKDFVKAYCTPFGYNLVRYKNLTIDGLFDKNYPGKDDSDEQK
Experiment: crRNA (strand 1, pre-loaded); Mg2+; 40 mM Tris-HCl pH 7.5, 150 mM NaCl, 6 mM MgCl2, 1 mM DTT, 0.1% Tween-20, 0.2 mg/ml BSA; 25 C; 10 min per concentration, then washed
Conditions: tags: His6-TwinStrep-SUMO cleaved; N-terminal SNAP kept (SNAP-Surface 488); label: 3' end held by stalled T7 RNA polymerase
The binders listed here are annotated with their Kd.
Record the value in nM, omitting the unit from your answer.

Record excerpt, results attached:
# binder, measurementUnits, recordedMeasurement
rows = [
    ("target 1 U10A,G17U (mixed) RNA 1: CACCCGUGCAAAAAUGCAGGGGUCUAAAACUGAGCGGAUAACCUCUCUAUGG RNA 2: GGGAAUGGAUCCACAUCUACGAAUUCGUACCAUAUAGAGGUAAUCCGCUCACCGAGAUCGGAAGAGCACACGU", "nM", 37.2),
    ("target 1 A1U,C21U (mixed) RNA 1: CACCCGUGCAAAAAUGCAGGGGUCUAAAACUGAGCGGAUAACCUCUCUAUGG RNA 2: GGGAAUGGAUCCACAUCUACGAAUUCGUACUAUAGAGAGGUUAUCCGCUCUCCGAGAUCGGAAGAGCACACGU", "nM", 7.6),
]

Can you share its Kd? I mean this binder: target 1 insG 3' of 7,insU 3' of 1 (mixed) RNA 1: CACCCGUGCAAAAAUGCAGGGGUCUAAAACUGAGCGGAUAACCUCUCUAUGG RNA 2: GGGAAUGGAUCCACAUCUACGAAUUCGUACCAUAGAGAGGUUAUCGCGCUCAUCCGAGAUCGGAAGAGCACACGU
7.3

Can you share its Kd? I mean this binder: target 1 C2U,G17U (mixed) RNA 1: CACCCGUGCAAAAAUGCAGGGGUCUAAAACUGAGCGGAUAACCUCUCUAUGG RNA 2: GGGAAUGGAUCCACAUCUACGAAUUCGUACCAUAUAGAGGUUAUCCGCUUACCGAGAUCGGAAGAGCACACGU
20.5
